Biological target: PARP1 (Homo sapiens)
Sequence (P09874 whole entry): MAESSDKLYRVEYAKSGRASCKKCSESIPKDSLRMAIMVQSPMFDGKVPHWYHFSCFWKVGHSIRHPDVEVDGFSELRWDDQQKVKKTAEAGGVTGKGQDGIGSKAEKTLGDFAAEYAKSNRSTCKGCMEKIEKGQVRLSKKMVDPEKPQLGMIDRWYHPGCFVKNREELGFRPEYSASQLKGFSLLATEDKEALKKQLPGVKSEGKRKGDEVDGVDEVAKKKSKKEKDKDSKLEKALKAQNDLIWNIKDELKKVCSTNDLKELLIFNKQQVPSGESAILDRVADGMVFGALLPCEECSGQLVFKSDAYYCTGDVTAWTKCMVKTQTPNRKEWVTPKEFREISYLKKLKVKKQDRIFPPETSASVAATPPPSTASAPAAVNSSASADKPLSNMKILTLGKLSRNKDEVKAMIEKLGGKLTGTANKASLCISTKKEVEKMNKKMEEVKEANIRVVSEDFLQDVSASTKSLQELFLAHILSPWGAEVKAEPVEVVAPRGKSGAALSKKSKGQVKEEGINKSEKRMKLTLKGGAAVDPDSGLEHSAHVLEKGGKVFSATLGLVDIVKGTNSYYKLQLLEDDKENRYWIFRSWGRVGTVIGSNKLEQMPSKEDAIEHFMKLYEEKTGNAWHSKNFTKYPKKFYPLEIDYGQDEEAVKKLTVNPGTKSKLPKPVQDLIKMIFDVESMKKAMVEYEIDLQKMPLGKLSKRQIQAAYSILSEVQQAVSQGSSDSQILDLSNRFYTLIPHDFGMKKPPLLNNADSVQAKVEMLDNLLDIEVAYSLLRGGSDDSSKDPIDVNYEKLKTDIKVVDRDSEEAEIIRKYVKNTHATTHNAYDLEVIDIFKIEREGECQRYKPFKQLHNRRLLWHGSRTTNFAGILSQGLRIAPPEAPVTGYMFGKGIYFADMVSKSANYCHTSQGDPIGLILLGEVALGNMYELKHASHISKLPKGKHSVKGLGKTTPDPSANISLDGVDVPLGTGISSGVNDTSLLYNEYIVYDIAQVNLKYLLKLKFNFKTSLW
Assay: Inhibition of PARP1 enzyme activity (ELISA, chemiluminescence)
Type: biochemical
Conditions: ELISA, histone-coated plate, NAD+, 60 min at 25 °C
Mark T only when IC50 stays strictly below 2 nM. Values equal to the cut-off are F.

QUERY: Record CNC(=O)c1ccc(C2=CCN(Cc3cc(OC(F)F)c4nc(C)c(=O)[nH]c4c3)CC2)cn1 : is its IC50 strictly below 2 nM?
RESULT: T

QUERY: Hi there! Is IC50 for CNC(=O)c1ccc(N2CCN(Cc3cc(Nc4ccc(F)cc4)c4nc(C)c(=O)[nH]c4c3)CC2)c(F)n1 below 2 nM, do you know?
RESULT: T

QUERY: Please state whether IC50 is below 2 nM for CNC(=O)c1ccc(N2CCN(Cc3cc(Oc4ccc(C#N)cc4)c4nc(C)c(=O)[nH]c4c3)CC2)c(F)n1
RESULT: F

QUERY: Record CNC(=O)c1ccc(N2CCN(Cc3cc(-c4ccccc4F)c4nc(C)c(=O)[nH]c4c3)CC2)c(F)n1 : is its IC50 strictly below 2 nM?
RESULT: F

QUERY: Is the reported IC50 for CNC(=O)c1ccc(N2CCN(Cc3cc(Oc4cccc(F)c4)c4nc(C)c(=O)[nH]c4c3)CC2)c(F)n1 strictly below 2 nM?
RESULT: T

QUERY: Problem: For the compound CNC(=O)c1ccc(N2CCN(Cc3cc(OC4CCCCC4)c4nc(C)c(=O)[nH]c4c3)CC2)c(F)n1 , is IC50 under 2 nM?
RESULT: T

QUERY: Is the reported IC50 for CNC(=O)c1ccc(N2CCN(Cc3cc(Oc4ccccc4F)c4nc(C)c(=O)[nH]c4c3)CC2)c(F)n1 strictly below 2 nM?
RESULT: F

QUERY: Is IC50 of CNC(=O)c1ccc(N2CCN(Cc3cc(OC(C)C)c4nc(C)c(=O)[nH]c4c3)CC2)c(F)n1 strictly below 2 nM?
RESULT: F

QUERY: Quick check: IC50 of CNC(=O)c1ccc(N2CCN(Cc3cc(Oc4ccc(F)cc4)c4nc(C)c(=O)[nH]c4c3)CC2)c(F)n1 under 2 nM?
RESULT: T

QUERY: Could you please tell me whether IC50 recorded for CC#Cc1cc(CN2CC=C(c3ccc(C(=O)NC4CC4)nc3F)CC2)cc2[nH]c(=O)c(C)nc12 is less than 2 nM?
RESULT: F

QUERY: Lab note: confirm whether the reported IC50 for this compound is below 2 nM, equality not counting. compound: CCNNC(=O)c1ccc(N2CCN(Cc3cc(OC(F)F)c4nc(C)c(=O)[nH]c4c3)CC2)c(F)n1
RESULT: F

QUERY: Decide: IC50 of CC#Cc1cc(CN2CCN(c3ccc(C#N)nc3)CC2)cc2[nH]c(=O)c(C)nc12 strictly below 2 nM?
RESULT: F

QUERY: Take the compound CC#Cc1cc(CN2CC=C(c3ccc(C(=O)NC)nc3)CC2)c(F)c2[nH]c(=O)c(C)nc12 and say whether its IC50 is less than 2 nM.
RESULT: F

QUERY: # check: IC50 < 2 nM for CNC(=O)c1ccc(N2CCN(Cc3cc(OC4CCCC4)c4nc(C)c(=O)[nH]c4c3)CC2)c(F)n1
RESULT: T

QUERY: Please let me know if CC#Cc1cc(CN2CC=C(c3ccc(C(=O)NC)nc3F)CC2)c(F)c2[nH]c(=O)c(C)nc12 shows IC50 below 2 nM.
RESULT: F

QUERY: Consider the compound CNC(=O)c1ccc(C2=CCN(Cc3cc(OC(F)F)c4nc(C)c(=O)[nH]c4c3)CC2)c(C)n1 . Is its IC50 strictly less than 2 nM?
RESULT: T

The origin of these recorded values is patent EP4755880A1.
